target: Receptor-type tyrosine-protein kinase FLT3 (Homo sapiens, UniProt P36888, ITD); experiment: biochemical
Sequence (P36888 whole entry, looked up, change not shown): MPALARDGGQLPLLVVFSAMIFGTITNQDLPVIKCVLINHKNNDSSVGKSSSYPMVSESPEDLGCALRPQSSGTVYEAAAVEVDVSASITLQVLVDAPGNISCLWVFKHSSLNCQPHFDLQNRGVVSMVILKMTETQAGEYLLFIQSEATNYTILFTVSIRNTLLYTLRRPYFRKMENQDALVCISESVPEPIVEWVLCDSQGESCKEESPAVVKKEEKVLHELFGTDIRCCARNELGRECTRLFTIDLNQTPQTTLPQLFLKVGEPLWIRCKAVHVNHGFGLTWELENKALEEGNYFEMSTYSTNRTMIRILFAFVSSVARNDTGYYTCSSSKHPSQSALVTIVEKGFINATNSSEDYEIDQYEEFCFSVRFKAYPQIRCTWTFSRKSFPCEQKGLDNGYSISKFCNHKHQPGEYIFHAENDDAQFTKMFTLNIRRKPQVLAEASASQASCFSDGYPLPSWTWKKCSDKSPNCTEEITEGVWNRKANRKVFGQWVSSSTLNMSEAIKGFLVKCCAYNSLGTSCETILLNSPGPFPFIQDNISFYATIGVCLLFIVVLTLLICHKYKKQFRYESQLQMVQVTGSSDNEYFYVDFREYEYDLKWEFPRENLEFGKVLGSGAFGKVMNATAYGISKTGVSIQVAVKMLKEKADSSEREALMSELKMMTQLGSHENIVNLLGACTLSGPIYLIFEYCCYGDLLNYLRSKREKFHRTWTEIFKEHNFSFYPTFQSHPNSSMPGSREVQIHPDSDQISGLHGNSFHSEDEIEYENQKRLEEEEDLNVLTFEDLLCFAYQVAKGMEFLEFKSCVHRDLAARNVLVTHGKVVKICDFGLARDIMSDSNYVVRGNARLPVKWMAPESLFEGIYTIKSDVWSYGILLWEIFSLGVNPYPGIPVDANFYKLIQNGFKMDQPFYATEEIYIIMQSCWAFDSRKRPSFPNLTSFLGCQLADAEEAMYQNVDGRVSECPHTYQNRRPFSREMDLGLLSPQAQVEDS
Description: Inhibition of N-terminal GST/His6-fused recombinant human FLT3 (R571 to S993 residues) ITD mutant expressed in Sf9 insect cells using poly (Ala,Glu,Lys,Tyr) 6:2:5:1 hydrobromide as substrate in presence of [gamma-33P]ATP
pIC50: −log10 of the molar value.
Answer each item with its documented pIC50.

Query: Entry Brc1ccc(Nc2nc(N3CCOCC3)nc3c2ncn3Cc2ccccc2)cc1 : reported pIC50 = ?
Result: < 4.70

Query: Entry CN1CCN(c2nc(Nc3ccc(Br)cc3)c3ncn(Cc4ccccc4)c3n2)CC1 : reported pIC50 = ?
Result: < 4.70

Query: Entry CN1CCN(c2nc(Nc3ccc(CN4CCOCC4)cc3)c3ncn(C4CCCC4)c3n2)CC1 : reported pIC50 = ?
Result: 7.28

All figures here come from ChEMBL document CHEMBL4177767.
